Target: cdk4/D (Homo sapiens)
Sequence (P11802 whole entry): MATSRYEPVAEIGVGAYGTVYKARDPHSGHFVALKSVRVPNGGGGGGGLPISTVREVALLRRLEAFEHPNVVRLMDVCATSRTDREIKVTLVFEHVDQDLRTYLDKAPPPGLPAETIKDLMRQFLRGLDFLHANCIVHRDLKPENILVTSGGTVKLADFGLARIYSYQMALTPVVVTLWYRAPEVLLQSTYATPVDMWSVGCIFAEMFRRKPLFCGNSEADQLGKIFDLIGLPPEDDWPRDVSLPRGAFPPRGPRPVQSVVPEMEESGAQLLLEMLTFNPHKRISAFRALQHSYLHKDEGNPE
Sequence (P24385 whole entry, further chain): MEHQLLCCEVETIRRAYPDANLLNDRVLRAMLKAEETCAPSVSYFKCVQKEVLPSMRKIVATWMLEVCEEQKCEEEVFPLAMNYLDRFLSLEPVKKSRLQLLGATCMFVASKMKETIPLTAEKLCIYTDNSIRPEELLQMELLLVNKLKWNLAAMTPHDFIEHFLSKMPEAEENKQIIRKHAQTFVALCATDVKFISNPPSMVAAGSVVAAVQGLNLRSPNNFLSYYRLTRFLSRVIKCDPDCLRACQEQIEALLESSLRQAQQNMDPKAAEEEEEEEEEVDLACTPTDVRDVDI
Experiment: Cyclin-Dependent Kinase 4 (cdk4) Assay
Assay type: biochemical
Conditions: read-out: cdk4/D IC50
Doc: threshold 300 nM (exclusive). Items with IC50 beneath it return 1.0; others return 0.0.

Lab note: confirm whether the reported IC50 for this molecule is below 300 nM, equality not counting. molecule: `CCCn1c(=O)ccc2cnc(Nc3ccc([N+](=O)[O-])cc3F)nc21`
0.0

Here's an entry: `O=c1ccc2cnc(Nc3ccc4[nH]ccc4c3)nc2n1C1CCCC1` . Is its IC50 below 300 nM?
1.0

Is IC50 of `CCCn1c(=O)ccc2cnc(Nc3ccc4[nH]ncc4c3)nc21` strictly below 300 nM?
1.0
